- target_under_test: T1, Fc fused human IL-18Rα (human, UniProt Q13478 19-329, limits assumed)
- T1 construct: also called IL-18Rα monomer; IL-18 receptor alpha; not shown: Fc part
- T1 sequence (looked up): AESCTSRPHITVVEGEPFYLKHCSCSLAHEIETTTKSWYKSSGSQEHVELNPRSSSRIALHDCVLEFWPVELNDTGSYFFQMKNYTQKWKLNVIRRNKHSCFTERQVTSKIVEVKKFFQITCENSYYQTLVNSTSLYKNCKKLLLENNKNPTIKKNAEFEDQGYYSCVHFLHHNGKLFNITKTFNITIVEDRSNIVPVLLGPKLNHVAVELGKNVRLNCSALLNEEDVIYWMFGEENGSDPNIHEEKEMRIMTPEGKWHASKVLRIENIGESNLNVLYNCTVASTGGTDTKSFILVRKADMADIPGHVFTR
- experimental_details: SPR, Fc-IL-18Rα captured, 1:1 model
- Description: The interaction of the wild type and of modified IL-18 polypeptides with human IL-18 receptor subunits were measured with Surface Plasmon Resonance (SPR) technology. […] The kinetic binding of the IL-18 analytes were measured with a Biacore 8K instrument in two-fold serial dilutions starting at 1 μM down to 0.98 nM. […]
pKd: −log10 of the molar value.
Attribute: pKd

- Modified IL-18 polypeptide of SEQ ID NO: 3 (Y01G, F02A, E06K, M51G, K53A, D54A, S55A, T63A) (ligand) GAGKLKSKLSVIRNLNDQVLFIDQGNRPLFEDMTDSDCRDNAPRTIFIISGYAAAQPRGMAVAISVKCEKISTLSCENKIISFKEMNPPDNIKDTKSDIIFFQRSVPGHDNKMQFESSSYEGYFLACEKERDLFKLILKKEDELGDRSIMFTVQNED: < 6.00

query: Bench note: what pKd did Modified IL-18 polypeptide of SEQ ID NO: 14 (E06K, K53A, S55A, M51G) (ligand) YFGKLKSKLSVIRNLNDQVLFIDQGNRPLFEDMTDSDCRDNAPRTIFIISGYADAQPRGMAVTISVKCEKISTLSCENKIISFKEMNPPDNIKDTKSDIIFFQRSVPGHDNKMQFESSSYEGYFLACEKERDLFKLILKKEDELGDRSIMFTVQNED show?
result: < 6.00

query: Bench note: what pKd did Modified IL-18 polypeptide of SEQ ID NO: 13 (E06K, K53A, S55A, D54A) (ligand) YFGKLKSKLSVIRNLNDQVLFIDQGNRPLFEDMTDSDCRDNAPRTIFIISMYAAAQPRGMAVTISVKCEKISTLSCENKIISFKEMNPPDNIKDTKSDIIFFQRSVPGHDNKMQFESSSYEGYFLACEKERDLFKLILKKEDELGDRSIMFTVQNED show?
result: < 6.00
